- System: MDA-MB-435
- procedureText: Cytotoxicity against human MDA-MB-435 cells for 72 hrs by MTT assay
- Type: functional, cell-based
- runConditions: MDA-MB-435, 72 h
assayReadout: IC50

Worked cases, IC50 given:
>>> datavalue("COc1cccc2c1C(=O)c1c(O)c3c(c(O)c1C2=O)C[C@@](O)(C(=O)CO)C[C@@H]3O[C@H]1C[C@H](N)[C@H](O)[C@H](C)O1 [DOXORUBICIN]")
"0.69 µg/mL"
>>> datavalue("O=c1c2c[nH]c3ccc(Br)cc3c-2nn1-c1nc2ccccc2s1")
"1.6 µg/mL"
>>> datavalue("O=c1c2c[nH]c3ccc(F)cc3c-2nn1-c1nc2ccccc2s1")
"> 5 µg/mL"
>>> datavalue("COc1ccc2[nH]cc3c(=O)n(-c4nc5ccccc5s4)nc-3c2c1")
"> 5 µg/mL"
>>> datavalue("Cc1ccc2[nH]cc3c(=O)n(-c4nc5ccccc5s4)nc-3c2c1")
"2.3 µg/mL"
>>> datavalue("O=c1c2c[nH]c3ccccc3c-2nn1-c1nc2ccccc2s1")
"> 5 µg/mL"

*Q* Please indicate IC50 recorded for O=c1c2c[nH]c3ccc([N+](=O)[O-])cc3c-2nn1-c1nc2ccccc2s1
*A* > 5 µg/mL

*Q* Output measured IC50 for this item: O=c1c2c[nH]c3ccc(Cl)cc3c-2nn1-c1nc2ccccc2s1
*A* > 5 µg/mL
